FYI, the data here is from patent US6913930B2.

- METHOD SUMMARY: physchem
QUANTITY: pKa

Req: pKa lookup needed for O=C(O)c1ccccc1C(=O)O [phthalate 1, potassium hydrogen phthalate] , thanks.
Resp: 4.82

----------
- METHOD SUMMARY: physchem
- PARTICULARS: 0.15 KCl solution
Exercise: state measured pKa for each of the compounds provided.

Oc1ccc(Cl)cc1 9.14

Req: Given the entry O=[N+]([O-])c1ccc(O)cc1 , report its measured pKa.
Resp: 6.89

----------
- METHOD SUMMARY: physchem
QUANTITY: pKa
Give bare numbers.

Known results for molecules:
MOLECULE	pKa
NCCc1ccccc1 [Phenylethylamine]	9.64
NCCc1c[nH]c2ccccc12 [Tryptamine]	9.67
O=C(O)C/C=C/c1ccccc1 [Trans-styrylacetic acid]	4.57
CC(C)NCC(O)c1ccc(NS(C)(=O)=O)cc1 (stereo not drawn) [Sotalol]	7.96
O=C(O)/C=C/c1ccccc1 [Trans-cinnamic acid]	4.15

// each listed molecule needs a value for pKa
1. Oc1ccc(Cl)cc1 [4-Cl phenol, 4-Chlorophenol]
2. Nc1cccc(C(=O)O)c1 [3-Aminobenzoic acid]
3. O=C1OC(c2ccc(O)cc2)(c2ccc(O)cc2)c2ccccc21 [Phenolphthalein]
4. NCCc1c[nH]c2ccc(O)cc12 [Serotonin]
5. NCc1ccccc1 [Benzylamine]
6. NCCCn1ccnc1 [1-(3-Aminopropyl)imidazole, 1-(3-Aminopropyl) imidazole]

Resp:
1. 9.03
2. 3.39
3. 8.84
4. 10.1
5. 9.23
6. 5.73

Req: Would you kindly share the measured pKa for O=C(O)Cc1ccccc1 [Phenylacetic acid] ?
Resp: 4.34

----------
Assign pKa (1st Deriv.) to each entry below.
- METHOD SUMMARY: pKa by continuous titration, apparatus of FIG. 8, optimised buffers, TFA or 1st derivative data processing
- PARTICULARS: run with calibration curve pH=−0.022×time+12.66; first derivative method
One number for each entry.

NCCc1c[nH]c2ccccc12 10.05
NCCc1c[nH]c2ccc(O)cc12 10.03
NCCCn1ccnc1 5.81

Kindly consider the entry below.
Req: # query: pKa (1st Deriv.) of entry Oc1ccc(Cl)cc1
Resp: 9.25

----------
- METHOD SUMMARY: pKa by continuous titration, linear pH gradient, apparatus of FIG. 2, 1st derivative peak time read from standards calibration curve
- Assay type: physicochemical
- PARTICULARS: buffered linear pH gradient (apparatus of FIG. 2), from standards calibration curve via time to peak maximum of 1st derivative; gradient over 4 minutes, FIG. 2 apparatus; read-out: pKa Derived
QUANTITY: pKa
One number for each entry.

Req: Give its pKa value. Item: Oc1ccc(Cl)cc1
Resp: 9.14
